Sourced from ChEMBL document CHEMBL3988442

# STUDY SYSTEM: Sialic acid-binding Ig-like lectin 9 (Homo sapiens) (UniProt Q9Y336)
# Sequence (Q9Y336 whole entry): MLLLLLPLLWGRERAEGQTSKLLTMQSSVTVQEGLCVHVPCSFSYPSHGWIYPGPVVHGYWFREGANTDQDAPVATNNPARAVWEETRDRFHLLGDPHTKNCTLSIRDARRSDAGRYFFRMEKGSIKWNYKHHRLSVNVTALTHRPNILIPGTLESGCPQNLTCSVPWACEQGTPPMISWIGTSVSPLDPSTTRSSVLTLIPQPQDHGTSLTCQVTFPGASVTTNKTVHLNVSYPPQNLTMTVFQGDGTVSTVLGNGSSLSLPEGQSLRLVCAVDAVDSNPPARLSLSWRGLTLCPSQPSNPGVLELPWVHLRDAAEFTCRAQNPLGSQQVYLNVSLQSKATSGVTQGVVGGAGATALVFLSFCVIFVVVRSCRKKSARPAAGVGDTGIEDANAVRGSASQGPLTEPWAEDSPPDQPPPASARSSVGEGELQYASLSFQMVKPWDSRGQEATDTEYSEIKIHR
# RUN DESCRIPTION: Hs-Siglec9 ALPHAscreen SOP 20170721
# Parameters: scale not given: direction of the effect not stated beside the values
# CONDITIONS USED: 10 µM
ASSAY READOUT: Percent Effect (%)
Hi! Could you send only the number? It should be in %, unit omitted.

# Percent Effect lookup, item NCc1cnn(-c2ccccc2C(=O)NCc2ccncc2)c1
-2.83

# Percent Effect lookup, item Cc1cn2nc(N3CCCC3CC(C)(C)C)sc2n1 (centres undefined)
3.5

# Percent Effect lookup, item CCCc1nnsc1C(=O)NCC1CCN(S(C)(=O)=O)CC1
9.94

# Percent Effect lookup, item CNc1cc2c(nn1)CCN(C(=O)c1cccc3c1OCO3)C2
7.76

# Percent Effect lookup, item COc1c(CNCc2ccc(C(=O)NC3CC3)cc2)c(C)nn1C
6.83

# Percent Effect lookup, item CC(CN1CCOCC1)NCc1nncn1C1CCCCC1 (centres undefined)
-12

# Percent Effect lookup, item CCN1C(=O)C2(CCOCC2)c2cc(NC(=O)c3ccco3)ccc21
14.7

---

# STUDY SYSTEM: Chromo domain-containing protein 1 (Saccharomyces cerevisiae (strain ATCC 204508 / S288c) (Baker's yeast))
# RUN DESCRIPTION: ScCHD-1 Enzyme Inhibition Assay; also: in the data most compounds retested in dose-response had high values
# Type: functional
# Design: scale not given: direction of the effect not stated beside the values
# CONDITIONS USED: 30 µM
We begin with a simple list: items and their reported Percent Effect.
Hi! Could you send only the number? It should be in %, unit omitted.

Worked cases, answers included:
# MOLECULE, ASSAY READOUT, READOUT UNIT, VALUE MEASURED
records = [
    ("Cc1nc(CN2CCCC(NCCOCC(F)(F)F)C2)no1 (configuration not stated)", "Percent Effect", "%", -5.18),
    ("CNC(=O)c1cnc(/C=C/c2cc(OC)c(OC)c(OC)c2)s1", "Percent Effect", "%", -13),
    ("COc1ccc2c(ccn2CCC(=O)O)c1", "Percent Effect", "%", -7.85),
    ("Cc1ccc(C)c(OC2CCN(C(=O)c3ccc(O)nc3)CC2)c1", "Percent Effect", "%", -11.2),
    ("CN1CCN(c2nc(O)c3c(-c4ccccn4)ccnc3n2)CC1", "Percent Effect", "%", -7.72),
    ("Cc1cc(C)nc(N2CCN(C(=O)c3cc(Cl)c[nH]3)CC2)n1", "Percent Effect", "%", -1.43),
    ("Clc1ccc2cccnc2c1CN1CCCC1Cn1cncn1 (configuration not stated)", "Percent Effect", "%", 5.04),
    ("COc1cccc(COCC(=O)N2CCC(CC(N)=O)CC2)c1", "Percent Effect", "%", -3.41),
]

# Percent Effect lookup, item COCC(=O)N1CC[C@H]2C[C@H](C)O[C@@H]2C1
-3.21

# Percent Effect lookup, item CN(C)C(=O)[C@@H]1CCO[C@@H]2CCN(CCc3ccccc3)C[C@@H]21
-6.78

# Percent Effect lookup, item CC(C)c1ncc2c(n1)CN(Cc1nc(-c3cccs3)no1)CC2
8.9

# Percent Effect lookup, item COc1ccc(C(=O)NCCc2nnc3ccccn23)c(OC)c1
-16.9
